Origin of measurements: patent US11999746B2

ASSAYED SYSTEM: recombinant human Lp-PLA2 (Homo sapiens, UniProt Q13093)
METHOD NOTES: (1b) hrThioPAF assay, recombinant human Lp-PLA2
Type: biochemical
CONDITION SET: Examples 266-412 were tested here, one experiment or average of multiple experiments, read-out: rhLp-PLA2 (pIC50) (converted)
Structures can show the parent of a compound that is named as a salt.
Assign IC50 to each entry below.

Quickly give me recorded IC50 for CC(C)OC(=O)N1CCN2c3cc(OCc4ccc(F)c(F)c4)nc(=O)n3CC2C1 (centres unmarked)
≤ 10 µM

Quickly give me recorded IC50 for CS(=O)(=O)N1CCN2c3cc(NCc4cccc(F)c4F)nc(=O)n3CC2C1 (centres unmarked)
≤ 10 µM

Quickly give me recorded IC50 for N[C@@H]1C[C@@H]2Cn3c(cc(OCc4cc(F)c(Oc5ccnc(C(F)(F)F)c5)c(F)c4)nc3=O)N2C1
≤ 10 µM

Quickly give me recorded IC50 for Cc1ccc(Oc2c(F)cc(COc3cc4n(c(=O)n3)CC3(COC3)N4C)cc2C#N)cn1
≤ 10 µM

Quickly give me recorded IC50 for CCS(=O)(=O)N1CCN2c3cc(OCc4ccc(F)c(C#N)c4)nc(=O)n3CC2C1 (centres unmarked)
≤ 10 µM

Quickly give me recorded IC50 for O=C(O)C(C1CC1)N1CCN2c3cc(OCc4ccc(F)c(F)c4)nc(=O)n3CC2C1 (centres unmarked) [Example E328, trifluoroacetic acid Salt]
≤ 10 µM

Quickly give me recorded IC50 for CC(C)C(=O)C(=O)N1CCN2c3cc(OCc4ccc(F)c(F)c4)nc(=O)n3CC2C1 (centres unmarked)
≤ 10 µM

Quickly give me recorded IC50 for O=c1nc(NCc2ccc(F)c(F)c2)cc2n1CC1CSCCN21 (centres unmarked)
≤ 10 µM

====

ASSAYED SYSTEM: recombinant human Lp-PLA2 (Homo sapiens)
Sequence (Q13093 22-441): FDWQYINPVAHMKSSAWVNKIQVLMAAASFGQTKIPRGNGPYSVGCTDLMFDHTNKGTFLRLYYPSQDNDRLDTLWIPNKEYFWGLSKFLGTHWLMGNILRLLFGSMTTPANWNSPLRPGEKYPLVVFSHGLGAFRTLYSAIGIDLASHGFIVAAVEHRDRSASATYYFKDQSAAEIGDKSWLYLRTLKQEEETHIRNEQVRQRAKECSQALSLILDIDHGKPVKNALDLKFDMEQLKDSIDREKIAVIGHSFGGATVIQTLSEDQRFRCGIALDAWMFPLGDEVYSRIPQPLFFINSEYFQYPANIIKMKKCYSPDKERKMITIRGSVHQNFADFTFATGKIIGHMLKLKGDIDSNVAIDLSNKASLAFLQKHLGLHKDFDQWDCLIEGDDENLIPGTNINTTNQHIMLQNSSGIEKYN
METHOD NOTES: (1b) hrThioPAF assay, recombinant human Lp-PLA2
Assay type: biochemical
CONDITION SET: Examples 266-412 were tested here, one experiment or average of multiple experiments, read-out: rhLp-PLA2 (pIC50) (converted)
Structures can show the parent of a compound that is named as a salt.
Assign IC50 to each entry below.

State measured IC50 of the molecule N#Cc1cc(CNc2cc3n(c(=O)n2)CC2CNC(=O)CN32)ccc1F (stereo not shown) [Example E354, trifluoroacetic acid salt] with recombinant human Lp-PLA2 (Homo sapiens).
≤ 10 µM

State measured IC50 of the molecule O=c1nc(OCc2cc(F)c(Oc3cncc(C(F)(F)F)c3)c(F)c2)cc2n1CC1CNCCN21 (stereo not shown) [Example E273] with recombinant human Lp-PLA2 (Homo sapiens).
≤ 0.001 µM

State measured IC50 of the molecule CS(=O)(=O)N1CCN2c3cc(OCc4ccc(F)c(F)c4)nc(=O)n3CC2C1 (stereo not shown) [Example E313] with recombinant human Lp-PLA2 (Homo sapiens).
≤ 0.1 µM

State measured IC50 of the molecule Cc1ccc(Oc2c(F)cc(COc3cc4n(c(=O)n3)CC3(COC3)N4)cc2F)cn1 [Example E394] with recombinant human Lp-PLA2 (Homo sapiens).
≤ 10 µM

====

ASSAYED SYSTEM: recombinant human Lp-PLA2 (Homo sapiens)
METHOD NOTES: (1a) PED6 assay, recombinant human Lp-PLA2 (rhLp-PLA2)
Assay type: biochemical
CONDITION SET: Examples 1-167 and 413-430 were tested here, one experiment or average of multiple experiments, read-out: rhLp-PLA2 (pIC50) (converted)
READOUT KIND: IC50

State measured IC50 of the molecule Cn1cc(Oc2c(F)cc(COc3cc4n(c(=O)n3)C[C@H]3COCCN43)cc2F)cn1 [Example E114] with recombinant human Lp-PLA2 (Homo sapiens).
≤ 100 nM

State measured IC50 of the molecule O=c1nc(OCc2cc(F)c(Oc3ccnc(C(F)(F)F)c3)c(F)c2)cc2n1CC1OCCCN21 (single isomer, unassigned) [Example E162] with recombinant human Lp-PLA2 (Homo sapiens).
≤ 1 nM

State measured IC50 of the molecule O=c1nc(OCc2cc(F)c(Oc3ccc(C(F)(F)F)nc3)c(F)c2)cc2n1C[C@H]1CCCN21 [Example E79] with recombinant human Lp-PLA2 (Homo sapiens).
≤ 1 nM

State measured IC50 of the molecule N#Cc1ccc(COc2cc3n(c(=O)n2)CC2CCCCN32)cc1 (centres unmarked) [Example E4] with recombinant human Lp-PLA2 (Homo sapiens).
≤ 10000 nM

State measured IC50 of the molecule O=c1nc(OCc2cc(F)cc(F)c2)cc2n1C[C@H]1COCN21 [Example E147] with recombinant human Lp-PLA2 (Homo sapiens).
≤ 100 nM

State measured IC50 of the molecule O=c1nc(OCc2cc(F)c(F)c(F)c2)cc2n1C[C@@H]1CCCCN21 [Example E32] with recombinant human Lp-PLA2 (Homo sapiens).
≤ 100 nM

State measured IC50 of the molecule O=c1nc(OCc2cc(F)c(Oc3ccnc(C(F)(F)F)c3)c(F)c2)cc2n1CC1CCCCN21 (centres unmarked) [Example E37] with recombinant human Lp-PLA2 (Homo sapiens).
≤ 1 nM

State measured IC50 of the molecule O=c1nc(OCc2cc(F)cc(F)c2)cc2n1CC1CCCCN21 (centres unmarked) [Example E3] with recombinant human Lp-PLA2 (Homo sapiens).
≤ 100 nM

====

Assign IC50 to each entry below.
ASSAYED SYSTEM: Lp-PLA2 in human plasma (Homo sapiens)
Construct: from tissue; host or cells: pooled human plasma
Sequence (Q13093 22-441): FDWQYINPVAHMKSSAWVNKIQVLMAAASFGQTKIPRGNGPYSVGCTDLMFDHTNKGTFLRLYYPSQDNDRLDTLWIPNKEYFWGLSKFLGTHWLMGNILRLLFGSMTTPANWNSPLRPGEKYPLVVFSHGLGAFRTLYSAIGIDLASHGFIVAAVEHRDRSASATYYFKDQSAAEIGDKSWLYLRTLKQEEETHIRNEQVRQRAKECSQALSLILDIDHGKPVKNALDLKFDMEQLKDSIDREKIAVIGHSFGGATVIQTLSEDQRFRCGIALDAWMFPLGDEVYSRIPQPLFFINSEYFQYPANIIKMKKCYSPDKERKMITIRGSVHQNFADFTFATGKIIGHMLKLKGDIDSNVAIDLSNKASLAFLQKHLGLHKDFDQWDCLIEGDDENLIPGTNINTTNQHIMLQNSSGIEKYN
METHOD NOTES: (3a) Lp-PLA2 human plasma Thio-PAF assay
Type: biochemical
CONDITION SET: (3a) Thio-PAF assay, pooled human plasma; Examples 1-265 and 413-430 were tested here; read-out: pIC50 in the Lp-PLA2 human plasma assay (converted)

Quickly give me recorded IC50 for O=c1nc(OCc2cccc(F)c2)cc2n1C[C@@H]1CCCN21
≤ 10 µM

Quickly give me recorded IC50 for O=c1nc(OCc2cc(F)c(F)c(F)c2)cc2n1C[C@@H]1CCCN21
≤ 10 µM

Quickly give me recorded IC50 for CN1c2cc(OCc3cc(F)c(F)cc3F)nc(=O)n2CC12CCCCC2
≤ 10 µM

Quickly give me recorded IC50 for Cn1cc(Oc2c(F)cc(COc3cc4n(c(=O)n3)C[C@H]3COCCN43)cc2F)cn1
≤ 0.1 µM

Quickly give me recorded IC50 for O=c1nc(OCc2ccc(F)cc2)cc2n1C[C@@H]1CCCCN21
≤ 10 µM

Quickly give me recorded IC50 for O=c1nc(OCc2cc(F)c(OC3CCC(F)(F)C3)c(F)c2)cc2n1C[C@@H]1CCCN21 (stereo partly shown)
≤ 10 µM

Quickly give me recorded IC50 for O=c1nc(OCc2cc(F)c(Oc3ccnc(C(F)(F)F)c3)c(F)c2)cc2n1CC1COCCN21 (stereo not shown)
≤ 0.1 µM

Quickly give me recorded IC50 for O=c1nc(OCc2ccc(Oc3cnc(C(F)(F)F)nc3)c(F)c2)cc2n1CC1CCCCN21 (stereo not shown) [Example E46]
≤ 0.1 µM

Quickly give me recorded IC50 for O=c1nc(OCc2cc(F)c(Oc3ccc(C(F)(F)F)nc3)c(F)c2)cc2n1CC1CCCCN21 (stereo not shown) [Example E25]
≤ 0.1 µM

Quickly give me recorded IC50 for Cn1cc(Oc2c(F)cc(COc3cc4n(c(=O)n3)CC3OCCN43)cc2F)cn1 (single isomer, unassigned)
≤ 10 µM

Quickly give me recorded IC50 for CCn1cc(Oc2c(F)cc(COc3cc4n(c(=O)n3)C[C@H]3COCN43)cc2F)cn1
≤ 10 µM

Quickly give me recorded IC50 for O=c1nc(OCc2ccc(Oc3ccc(C(F)(F)F)nc3)c(F)c2)cc2n1CC1CCCCN21 (stereo not shown) [Example E48]
≤ 10 µM

Quickly give me recorded IC50 for Cc1cc(Oc2c(F)cc(COc3cc4n(c(=O)n3)C[C@H]3COCCN43)cc2F)ccn1
≤ 0.1 µM

Quickly give me recorded IC50 for CC(C)n1cc(Oc2c(F)cc(COc3cc4n(c(=O)n3)CC3CCCN43)cc2F)cn1 (stereo not shown)
≤ 10 µM

Quickly give me recorded IC50 for O=c1nc(OCc2ccc(F)cc2F)cc2n1C[C@H]1CCOCN21
≤ 10 µM

Quickly give me recorded IC50 for O=c1nc(OCc2cccc(F)c2F)cc2n1C[C@H]1CCCN21
≤ 10 µM
